Consider the following molecules; for each one, report its relative viability.
Test system: NCI-H650
ASSAY_EXPLANATION: relative viability (nuclei count vs DMSO), 5 days (fraction); higher = more cells survive
CONDITION_PARAMETERS: first compound 0.01581 µM
One number for each entry.

Sample records with relative viability:
COc1cc2nccc(Oc3ccc(NC(=O)Nc4cc(C)on4)c(Cl)c3)c2cc1OC [Tivozanib] + NC(=O)Nc1cc(-c2cccc(F)c2)sc1C(=O)N[C@H]1CCCNC1 [AZD7762] (partner 0.2 µM); 1.08
Nc1ccn([C@@H]2O[C@H](CO)[C@@H](O)[C@@H]2O)c(=O)n1 [Cytarabine] + CCNC(=O)c1noc(-c2cc(C(C)C)c(O)cc2O)c1-c1ccc(CN2CCOCC2)cc1 [Luminespib] (partner 0.01 µM); 0.485
COc1cc2nccc(Oc3ccc(NC(=O)Nc4cc(C)on4)c(Cl)c3)c2cc1OC [Tivozanib] + O=C(CCCCCCC(=O)Nc1ccccc1)NO [Vorinostat] (partner 1 µM); 0.379
Nc1ccn([C@@H]2O[C@H](CO)[C@@H](O)[C@@H]2O)c(=O)n1 [Cytarabine] + Cc1nc(Nc2ncc(C(=O)Nc3c(C)cccc3Cl)s2)cc(N2CCN(CCO)CC2)n1 [Dasatinib] (partner 0.075 µM); 0.399
COc1cc2nccc(Oc3ccc(NC(=O)Nc4cc(C)on4)c(Cl)c3)c2cc1OC [Tivozanib] + CC(C)C[C@H](NC(=O)[C@H](Cc1ccccc1)NC(=O)c1cnccn1)B(O)O [Bortezomib] (partner 0.002 µM); 0.956
COc1cc2nccc(Oc3ccc(NC(=O)Nc4cc(C)on4)c(Cl)c3)c2cc1OC [Tivozanib] + COc1cc2c(Oc3ccc(NC(=O)C4(C(=O)Nc5ccc(F)cc5)CC4)cc3F)ccnc2cc1OCCCN1CCOCC1 [Foretinib] (partner 0.25 µM); 1.02

Below is a list of molecules. For each, state its recorded relative viability.
1. COc1cc2nccc(Oc3ccc(NC(=O)Nc4cc(C)on4)c(Cl)c3)c2cc1OC [Tivozanib] + Nc1ncn([C@H]2C[C@H](O)[C@@H](CO)O2)c(=O)n1 [Decitabine] (partner 2 µM)
2. Nc1ccn([C@@H]2O[C@H](CO)[C@@H](O)[C@@H]2O)c(=O)n1 [Cytarabine] + CC(C)C[C@H](NC(=O)[C@H](Cc1ccccc1)NC(=O)c1cnccn1)B(O)O [Bortezomib] (partner 0.002 µM)
3. COc1cc2nccc(Oc3ccc(NC(=O)Nc4cc(C)on4)c(Cl)c3)c2cc1OC [Tivozanib] + CC(=O)c1c(C)c2cnc(Nc3ccc(N4CCNCC4)cn3)nc2n(C2CCCC2)c1=O [Palbociclib] (partner 0.5 µM)

Result:
1: 0.299; 2: 0.486; 3: 0.391

---

Tested on: NCI-H1792
ASSAY_EXPLANATION: relative viability (nuclei count vs DMSO), 5 days (fraction); higher = more cells survive
CONDITION_PARAMETERS: first compound 0.006325 µM
METRIC_NAME: relative viability
One number for each entry.

CC(=O)O[C@@]12CO[C@@H]1C[C@H](O)[C@@]1(C)C(=O)[C@H](O)C3=C(C)[C@@H](OC(=O)[C@H](O)[C@@H](NC(=O)OC(C)(C)C)c4ccccc4)C[C@@](O)([C@@H](OC(=O)c4ccccc4)[C@H]21)C3(C)C [Docetaxel] + CC(=O)Nc1cccc(-n2c(=O)n(C3CC3)c(=O)c3c(Nc4ccc(I)cc4F)n(C)c(=O)c(C)c32)c1 [Trametinib] (partner 0.02 µM); 0.142
CC(=O)O[C@@]12CO[C@@H]1C[C@H](O)[C@@]1(C)C(=O)[C@H](O)C3=C(C)[C@@H](OC(=O)[C@H](O)[C@@H](NC(=O)OC(C)(C)C)c4ccccc4)C[C@@](O)([C@@H](OC(=O)c4ccccc4)[C@H]21)C3(C)C [Docetaxel] + Nc1ncn([C@H]2C[C@H](O)[C@@H](CO)O2)c(=O)n1 [Decitabine] (partner 2 µM); 0.172
CC(=O)O[C@@]12CO[C@@H]1C[C@H](O)[C@@]1(C)C(=O)[C@H](O)C3=C(C)[C@@H](OC(=O)[C@H](O)[C@@H](NC(=O)OC(C)(C)C)c4ccccc4)C[C@@](O)([C@@H](OC(=O)c4ccccc4)[C@H]21)C3(C)C [Docetaxel] + CCNC(=O)c1noc(-c2cc(C(C)C)c(O)cc2O)c1-c1ccc(CN2CCOCC2)cc1 [Luminespib] (partner 0.01 µM); 0.338

Query: Consider the compound shown here: CC(=O)O[C@@]12CO[C@@H]1C[C@H](O)[C@@]1(C)C(=O)[C@H](O)C3=C(C)[C@@H](OC(=O)[C@H](O)[C@@H](NC(=O)OC(C)(C)C)c4ccccc4)C[C@@](O)([C@@H](OC(=O)c4ccccc4)[C@H]21)C3(C)C [Docetaxel] + CC(=O)c1c(C)c2cnc(Nc3ccc(N4CCNCC4)cn3)nc2n(C2CCCC2)c1=O [Palbociclib] (partner 0.5 µM) What is its recorded relative viability?
Result: 0.367

---

Test system: NCI-H1355
ASSAY_EXPLANATION: relative viability (nuclei count vs DMSO), 5 days (fraction); higher = more cells survive
CONDITION_PARAMETERS: first compound 5 µM
Consider the following compounds; for each one, report its relative viability.

Sample records with relative viability:
O=C(O)CCCCC(CCSCc1ccccc1)SCc1ccccc1 (centres undefined) [CPI-613] + CC(C)C[C@H](NC(=O)[C@H](Cc1ccccc1)NC(=O)c1cnccn1)B(O)O [Bortezomib] (partner 0.002 µM); 1.2
O=C(O)CCCCC(CCSCc1ccccc1)SCc1ccccc1 (centres undefined) [CPI-613] + CCNC(=O)c1noc(-c2cc(C(C)C)c(O)cc2O)c1-c1ccc(CN2CCOCC2)cc1 [Luminespib] (partner 0.01 µM); 0.692
O=C(O)CCCCC(CCSCc1ccccc1)SCc1ccccc1 (centres undefined) [CPI-613] + CS(=O)(=O)CCNCc1ccc(-c2ccc3ncnc(Nc4ccc(OCc5cccc(F)c5)c(Cl)c4)c3c2)o1 [Lapatinib] (partner 2 µM); 1.02

# next compound below
Query: Consider the compound shown here: O=C(O)CCCCC(CCSCc1ccccc1)SCc1ccccc1 (centres undefined) [CPI-613] + COc1cccc2cc(-c3nc([C@H]4CC[C@H](C(=O)O)CC4)n4ncnc(N)c34)[nH]c12 [OSI-027] (partner 0.5 µM) What is its recorded relative viability?
Result: 0.388

---

Test system: EPLC-272H
ASSAY_EXPLANATION: relative viability (nuclei count vs DMSO), 5 days (fraction); higher = more cells survive
CONDITION_PARAMETERS: first compound 0.01581 µM
Mark satisfied for relative viability under 0.8, not satisfied if at or over.

Solved cases (8 shown):
COc1cc2nccc(Oc3ccc(NC(=O)Nc4cc(C)on4)c(Cl)c3)c2cc1OC [Tivozanib] + Cc1nc(NC(=O)N2CCC[C@H]2C(N)=O)sc1-c1ccnc(C(C)(C)C(F)(F)F)c1 [Alpelisib] (partner 2 µM); not satisfied
COc1cc2nccc(Oc3ccc(NC(=O)Nc4cc(C)on4)c(Cl)c3)c2cc1OC [Tivozanib] + CC1(C)CCC(c2ccc(Cl)cc2)=C(CN2CCN(c3ccc(C(=O)NS(=O)(=O)c4ccc(N[C@H](CCN5CCOCC5)CSc5ccccc5)c(S(=O)(=O)C(F)(F)F)c4)cc3)CC2)C1 [Navitoclax] (partner 0.5 µM); not satisfied
COc1cc2nccc(Oc3ccc(NC(=O)Nc4cc(C)on4)c(Cl)c3)c2cc1OC [Tivozanib] + CC(C)C[C@H](NC(=O)[C@H](Cc1ccccc1)NC(=O)c1cnccn1)B(O)O [Bortezomib] (partner 0.002 µM); not satisfied
COc1cc2nccc(Oc3ccc(NC(=O)Nc4cc(C)on4)c(Cl)c3)c2cc1OC [Tivozanib] + COc1cccc2cc(-c3nc([C@H]4CC[C@H](C(=O)O)CC4)n4ncnc(N)c34)[nH]c12 [OSI-027] (partner 0.5 µM); satisfied
Nc1ccn([C@@H]2O[C@H](CO)[C@@H](O)[C@@H]2O)c(=O)n1 [Cytarabine] + COc1cccc2cc(-c3nc([C@H]4CC[C@H](C(=O)O)CC4)n4ncnc(N)c34)[nH]c12 [OSI-027] (partner 0.5 µM); satisfied
Nc1ccn([C@@H]2O[C@H](CO)[C@@H](O)[C@@H]2O)c(=O)n1 [Cytarabine] + CC(C)C[C@H](NC(=O)[C@H](Cc1ccccc1)NC(=O)c1cnccn1)B(O)O [Bortezomib] (partner 0.002 µM); not satisfied
COc1cc2nccc(Oc3ccc(NC(=O)Nc4cc(C)on4)c(Cl)c3)c2cc1OC [Tivozanib] + Cc1nc(Nc2ncc(C(=O)Nc3c(C)cccc3Cl)s2)cc(N2CCN(CCO)CC2)n1 [Dasatinib] (partner 0.075 µM); satisfied
Nc1ccn([C@@H]2O[C@H](CO)[C@@H](O)[C@@H]2O)c(=O)n1 [Cytarabine] + Nc1ncn([C@H]2C[C@H](O)[C@@H](CO)O2)c(=O)n1 [Decitabine] (partner 2 µM); satisfied

Query: Dear reviewer, please state whether Nc1ccn([C@@H]2O[C@H](CO)[C@@H](O)[C@@H]2O)c(=O)n1 [Cytarabine] + NC(=O)Nc1cc(-c2cccc(F)c2)sc1C(=O)N[C@H]1CCCNC1 [AZD7762] (partner 0.2 µM) has relative viability strictly beneath 0.8.
Result: satisfied

Query: Dear reviewer, please state whether Nc1ccn([C@@H]2O[C@H](CO)[C@@H](O)[C@@H]2O)c(=O)n1 [Cytarabine] + Nc1nc2[nH]cc(CCc3ccc(C(=O)N[C@@H](CCC(=O)O)C(=O)O)cc3)c2c(=O)[nH]1 [Pemetrexed] (partner 0.2 µM) has relative viability strictly beneath 0.8.
Result: satisfied

Query: Dear reviewer, please state whether COc1cc2nccc(Oc3ccc(NC(=O)Nc4cc(C)on4)c(Cl)c3)c2cc1OC [Tivozanib] + C[C@]1(O)C[C@@H](c2nc(-c3ccc4ccc(-c5ccccc5)nc4c3)c3c(N)nccn32)C1 [Linsitinib] (partner 1 µM) has relative viability strictly beneath 0.8.
Result: not satisfied

Query: Dear reviewer, please state whether COc1cc2nccc(Oc3ccc(NC(=O)Nc4cc(C)on4)c(Cl)c3)c2cc1OC [Tivozanib] + CS(=O)(=O)CCNCc1ccc(-c2ccc3ncnc(Nc4ccc(OCc5cccc(F)c5)c(Cl)c4)c3c2)o1 [Lapatinib] (partner 2 µM) has relative viability strictly beneath 0.8.
Result: not satisfied
